tested on: Platelet-derived growth factor receptor alpha (Homo sapiens), P16234 [D842V]; conditions: at 1 µM
Sequence (P16234 whole entry D842V): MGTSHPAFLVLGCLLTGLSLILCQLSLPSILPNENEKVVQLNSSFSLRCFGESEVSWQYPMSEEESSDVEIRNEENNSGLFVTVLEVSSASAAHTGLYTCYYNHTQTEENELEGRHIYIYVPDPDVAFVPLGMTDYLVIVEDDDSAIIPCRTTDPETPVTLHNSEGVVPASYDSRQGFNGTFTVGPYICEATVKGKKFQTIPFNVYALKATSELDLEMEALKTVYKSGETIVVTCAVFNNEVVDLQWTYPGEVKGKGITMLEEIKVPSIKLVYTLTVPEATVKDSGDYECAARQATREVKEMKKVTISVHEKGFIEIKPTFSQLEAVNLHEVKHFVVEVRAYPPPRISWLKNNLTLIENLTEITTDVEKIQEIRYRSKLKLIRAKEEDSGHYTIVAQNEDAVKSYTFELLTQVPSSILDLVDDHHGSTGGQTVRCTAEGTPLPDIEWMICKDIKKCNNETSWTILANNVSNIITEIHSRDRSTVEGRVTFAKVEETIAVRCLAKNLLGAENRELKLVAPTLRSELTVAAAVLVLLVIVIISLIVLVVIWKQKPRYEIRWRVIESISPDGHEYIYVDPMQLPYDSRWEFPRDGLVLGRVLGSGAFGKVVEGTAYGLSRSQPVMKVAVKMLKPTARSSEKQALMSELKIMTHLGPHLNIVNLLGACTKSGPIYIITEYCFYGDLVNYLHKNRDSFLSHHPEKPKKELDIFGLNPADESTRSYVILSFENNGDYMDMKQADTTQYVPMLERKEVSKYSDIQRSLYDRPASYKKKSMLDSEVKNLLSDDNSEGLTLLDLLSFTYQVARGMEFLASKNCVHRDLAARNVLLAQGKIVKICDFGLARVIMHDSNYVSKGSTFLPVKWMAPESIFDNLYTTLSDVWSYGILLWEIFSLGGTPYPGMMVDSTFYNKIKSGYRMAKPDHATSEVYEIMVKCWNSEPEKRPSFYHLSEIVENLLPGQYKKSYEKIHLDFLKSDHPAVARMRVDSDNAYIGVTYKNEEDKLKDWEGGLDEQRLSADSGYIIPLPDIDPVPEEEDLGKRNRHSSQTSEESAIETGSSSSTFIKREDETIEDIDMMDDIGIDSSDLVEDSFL
Listed below: inhibition values for each entry.
observation-type: inhibition (%)

{"chem-smiles": "COC(=O)Nc1nc2cc(Oc3cccc(NC(=O)Nc4cc(C(F)(F)F)ccc4F)c3)ccc2[nH]1", "unit": "%", "endpoint-result": 8.72}
{"chem-smiles": "Nc1nc(-c2ccc3c(c2)C(=Cc2cc(Br)c(O)c(Br)c2)C(=O)N3)cs1", "unit": "%", "endpoint-result": 2.21}
{"chem-smiles": "COc1cc(C=NNc2ncnc3c2cnn3-c2ccccc2)ccc1O", "unit": "%", "endpoint-result": 79.5}
{"chem-smiles": "CS(=O)(=O)CCN(CC#N)Cc1ccc(-c2ccc3ncnc(Nc4ccc(OCc5cccc(F)c5)c(Cl)c4)c3c2)o1", "unit": "%", "endpoint-result": 3.78}
